# experimental system: human A2aR (Homo sapiens, UniProt P29274)
# Sequence (P29274 whole entry): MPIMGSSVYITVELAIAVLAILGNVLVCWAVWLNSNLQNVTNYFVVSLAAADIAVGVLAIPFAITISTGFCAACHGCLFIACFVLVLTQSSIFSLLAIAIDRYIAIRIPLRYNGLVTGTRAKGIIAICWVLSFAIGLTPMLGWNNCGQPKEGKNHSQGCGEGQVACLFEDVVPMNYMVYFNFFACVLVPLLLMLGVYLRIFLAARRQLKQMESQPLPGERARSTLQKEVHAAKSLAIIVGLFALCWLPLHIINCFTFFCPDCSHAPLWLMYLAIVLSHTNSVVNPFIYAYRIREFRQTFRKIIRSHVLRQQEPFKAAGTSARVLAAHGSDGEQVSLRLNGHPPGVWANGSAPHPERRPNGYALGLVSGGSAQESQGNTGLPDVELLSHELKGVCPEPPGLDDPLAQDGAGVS
# assay remarks: Binding of humanized anti-A2aR antibodies in transfected Expi293F cell supernatant to human A2aR on HEK293 cells (FACS, MFI)
# condition details: supernatant with 1 μg/ml antibody; HEK293 overexpressing human A2aR; heavy chain (row) x light chain
# Experimental: Briefly, HEK293 cells that stably overexpress human A2aR (HEK-hA2aR OCL, BPS Bioscience, Cat. 79381) were collected from fresh culture. Cells were then resuspended in FACS buffer (1×DPBS/1% FBS) at 10^6/ml concentration. One hundred microliters (100 μl) of cells were aliquoted into each well of a 96 well plates. […] The mean fluorescence intensity (MFI) was obtained using Guava 11HT or 5HT (Luminex). Data was analyzed using Flowjo software. […]
measured attribute: MFI, binding to human A2aR on cell surface (3F6-9G5 derived)
Response field accepts a number only; no unit should be typed.

Solved cases (2 shown):
molecule	quantitative result
Hu3F6-H3/Hu3F6-L2: humanized anti-A2aR IgG1 FES antibody; HCVR SEQ ID NO:60, LCVR SEQ ID NO:77 (antibody, V domains shown) VH: EVQLVQSGAEVKKPGASVKVSCKTSGFAFTSYWMNWVRQAPGQGLEWIGRIDPSDSEAHYHHKFWGRATLTVDTSSSTVYMELSSLRSEDTAVYYCLRSLYGKGDYWGHGTTVTVSS VL: DVVMTQSPLSLPVTLGQPASISCRSSQSLVHRNGNTYLEWYQQRPGQSPRRLIYKVSNRFSGVPDRFSGSGSGTDFTLKISRVEAEDVGVYYCYQGSHVPLTFGGGTKVEIK	200
Hu3F6-H4/Hu3F6-L1: humanized anti-A2aR IgG1 FES antibody; HCVR SEQ ID NO:61, LCVR SEQ ID NO:76 (antibody, V domains shown) VH: EVQLVQSGAEVKKPGASVKVSCKTSGFAFTSYWMNWVRQAPGQGLEWIGRIDPSDSEAHYHHKFWGRATLTVDKSSSTVYMELSSLRSEDTAVYYCLRSLYGKGDYWGHGTTVTVSS VL: DVVMTQSPLSLPVTLGQPASISCRSSQSLVHRNGNTYLEWFQQRPGQSPRRLIYKVSNRFSGVPDRFSGSGSGTDFTLKISRVEAEDVGVYYCYQGSHVPLTFGGGTKVEIK	21

QUERY: Reported MFI, binding to human A2aR on cell surface (3F6-9G5 derived), molecule Hu3F6-H5/Hu3F6-L1: humanized anti-A2aR IgG1 FES antibody; HCVR SEQ ID NO:62, LCVR SEQ ID NO:76 (antibody, V domains shown) VH: EVQLVQSGAEVKKPGASVKVSCKTSGFAFTSYWMNWVRQAPGQGLEWIGRIDPSDSEAHYAHKFWGRATLTVDKSSSTVYMELSSLRSEDTAVYYCLRSLYGKGDYWGHGTTVTVSS VL: DVVMTQSPLSLPVTLGQPASISCRSSQSLVHRNGNTYLEWFQQRPGQSPRRLIYKVSNRFSGVPDRFSGSGSGTDFTLKISRVEAEDVGVYYCYQGSHVPLTFGGGTKVEIK : ____
RESULT: 25
